Test system: NCI-H522 lung
Experiment: NCI tumour cell line growth inhibition, 48 h
Below, each entry is listed alongside its reported TGI.

Recorded results for 5 compounds are shown here.
Request: Give the reported value of TGI for this record: [N-]=[N+]=Nc1ccc(NCCCCCC(=O)ON2C(=O)CCC2=O)c([N+](=O)[O-])c1
Result: > 100 µM

Request: Annotate the compound Cc1csc(/C=N/NC(=O)c2nnn(-c3ccnc4c(C(F)(F)F)cccc34)c2C)c1 with its measured TGI.
Result: > 100 µM

Request: Given the compound COc1cc(=O)oc(/C=C/C=O)c1C , write its reported TGI.
Result: 35.3 µM

Request: Output TGI of O=C(/C=C1\C(=O)N(Cc2ccc([N+](=O)[O-])cc2)c2ccccc21)c1ccc(OCCN2CCCCC2)cc1
Result: 1.99 µM

Request: Could you please provide reported TGI for NC(=O)c1cc(-c2ccncc2)cc(-c2ccccc2)c1N ? Thanks!
Result: > 15.8 µM

Next:
Request: Please supply the value of reported TGI for the item CC(C)(C)OC(=O)NC1CC=CCC1NC(=O)OC(C)(C)C (stereo not drawn)
Result: > 100 µM

Request: For O=C1c2ccccc2C(=O)C2C1C1C(=O)c3ccccc3C(=O)C21 (stereo not drawn) , write its TGI.
Result: > 100 µM

Request: Give me measured TGI, please, for this compound: COc1cc([N+](=O)[O-])c(S(=O)(=O)O)cc1NS(=O)(=O)c1ccc(C)cc1
Result: > 100 µM
